- Tested on: Streptococcus pyogenes SSI-9
- experiment summary: Antibacterial activity assay of bead-derived peptides (three concentrations)
- Type: cell-based
- Design: key: +++: inhibition by the 640-fold diluted peptide solution; ++: inhibition by the 160-fold diluted solution; +: inhibition by the 40-fold diluted solution; -: no inhibition
- condition context: S. pyogenes, bead-derived peptide solution, three concentrations
Where a SMILES comes first, the peptide text is derived from it. [ ]: non-standard residue; d: D form. The star is where a group is joined. NHCH2CH2OH = OCCN*; For = O=C*
endpoint label: antibacterial activity

CC(C)C[C@@H](NC(=O)[C@H](C)NC(=O)CNC(=O)[C@@H](NC=O)C(C)C)C(=O)N[C@@H](C)C(=O)N[C@H](CC(C)C)C(=O)N[C@H](C(=O)N[C@@H](C(=O)N[C@@H](Cc1c[nH]c2ccccc12)C(=O)N[C@@H](C(=O)N[C@@H](Cc1c[nH]c2ccccc12)C(=O)N[C@@H](C(=O)N[C@@H](Cc1c[nH]c2ccccc12)C(=O)N[C@H](CC(C)C)C(=O)N[C@@H](Cc1c[nH]c2ccccc12)C(=O)NCCO)C(C)C)C(C)C)[C@H](C)O)C(C)C [compound 4784] (For-VGA[dL]A[dL]V[dT]W[dV]W[dV]W[dL]W-NHCH2CH2OH)    -
CNC(=O)C[C@@H](NC(=O)[C@@H](NC(=O)[C@H](NC(=O)[C@H](C)NC(=O)[C@@H](CC(C)C)NC(=O)[C@H](C)NC(=O)CNC(=O)[C@@H](NC=O)C(C)C)C(C)C)C(C)C)C(=O)N[C@@H](Cc1c[nH]c2ccccc12)C(=O)N[C@H](CC(C)C)C(=O)N[C@@H](Cc1c[nH]c2ccccc12)C(=O)N[C@@H](C(=O)N[C@@H](Cc1c[nH]c2ccccc12)C(=O)N[C@@H](C(=O)N[C@@H](Cc1c[nH]c2ccccc12)C(=O)NCCO)C(C)C)C(C)C [compound 2195] (For-VGA[dL]A[dV]V[dD](NHMe)W[dL]W[dV]W[dV]W-NHCH2CH2OH)    -
CNC(=O)C[C@@H](NC(=O)[C@H](C)NC(=O)[C@@H](CC(C)C)NC(=O)[C@H](C)NC(=O)CNC(=O)[C@@H](NC=O)C(C)C)C(=O)N[C@H](C(=O)N[C@@H](C(=O)N[C@@H](Cc1c[nH]c2ccccc12)C(=O)N[C@H](CC(C)C)C(=O)N[C@@H](Cc1c[nH]c2ccccc12)C(=O)N[C@@H](C(=O)N[C@@H](Cc1c[nH]c2ccccc12)C(=O)N[C@H](CC(C)C)C(=O)N[C@@H](Cc1c[nH]c2ccccc12)C(=O)NCCO)C(C)C)C(C)C)C(C)C [compound 8535] (For-VGA[dL]A[dD](NHMe)V[dV]W[dL]W[dV]W[dL]W-NHCH2CH2OH)    -

====

Listed below: Hemolytic activity HC10 (concentration causing 10% hemolysis) values for each entry.
- Tested on: rabbit red blood cells
- condition context: red cells of rabbit, 2 h
Where a SMILES comes first, the peptide text is derived from it. [ ]: non-standard residue; d: D form. The star is where a group is joined. NHCH2CH2OH = OCCN*; For = O=C*

Answered examples (2):
CC(C)C[C@@H](NC(=O)[C@H](C)NC(=O)[C@H](NC(=O)[C@H](C)NC(=O)CNC(=O)[C@@H](NC=O)C(C)C)[C@H](C)O)C(=O)N[C@H](C(=O)N[C@H](CC(C)C)C(=O)N[C@@H](Cc1c[nH]c2ccccc12)C(=O)N[C@@H](C(=O)N[C@@H](Cc1c[nH]c2ccccc12)C(=O)N[C@H](CC(C)C)C(=O)N[C@@H](Cc1c[nH]c2ccccc12)C(=O)N[C@@H](C(=O)N[C@@H](Cc1c[nH]c2ccccc12)C(=O)NCCO)C(C)C)[C@H](C)O)C(C)C [B21] (For-VGA[dT]A[dL]V[dL]W[dT]W[dL]W[dV]W-NHCH2CH2OH)    > 3000 nM
CC(C)C[C@@H](NC(=O)[C@H](C)NC(=O)CNC(=O)[C@@H](NC=O)C(C)C)C(=O)N[C@@H](C)C(=O)N[C@@H](C(=O)N[C@H](C(=O)N[C@@H](C(=O)N[C@@H](Cc1c[nH]c2ccccc12)C(=O)N[C@H](CC(C)C)C(=O)N[C@@H](Cc1c[nH]c2ccccc12)C(=O)N[C@H](CC(C)C)C(=O)N[C@@H](Cc1c[nH]c2ccccc12)C(=O)N[C@@H](C(=O)N[C@@H](Cc1c[nH]c2ccccc12)C(=O)NCCO)C(C)C)[C@H](C)O)C(C)C)C(C)C [B12] (For-VGA[dL]A[dV]V[dT]W[dL]W[dL]W[dV]W-NHCH2CH2OH)    > 3000 nM

Item under review: CNC(=O)C[C@@H](NC(=O)[C@@H](NC(=O)[C@@H](CC(C)C)NC(=O)[C@H](C)NC(=O)[C@@H](CC(C)C)NC(=O)[C@H](C)NC(=O)CNC(=O)[C@@H](NC=O)C(C)C)C(C)C)C(=O)N[C@@H](Cc1c[nH]c2ccccc12)C(=O)N[C@H](CC(C)C)C(=O)N[C@@H](Cc1c[nH]c2ccccc12)C(=O)N[C@H](CC(C)C)C(=O)N[C@@H](Cc1c[nH]c2ccccc12)C(=O)N[C@@H](C(=O)N[C@@H](Cc1c[nH]c2ccccc12)C(=O)NCCO)[C@H](C)O [B22] (For-VGA[dL]A[dL]V[dD](NHMe)W[dL]W[dL]W[dT]W-NHCH2CH2OH) . Reported Hemolytic activity HC10 (concentration causing 10% hemolysis)?
> 3000 nM

Using the record for CC(C)C[C@@H](NC(=O)[C@H](C)NC(=O)CNC(=O)[C@@H](NC=O)C(C)C)C(=O)N[C@@H](C)C(=O)N[C@@H](C(=O)N[C@H](C(=O)N[C@@H](C(=O)N[C@@H](Cc1c[nH]c2ccccc12)C(=O)N[C@H](CC(C)C)C(=O)N[C@@H](Cc1c[nH]c2ccccc12)C(=O)N[C@H](CC(C)C)C(=O)N[C@@H](Cc1c[nH]c2ccccc12)C(=O)N[C@H](CC(C)C)C(=O)N[C@@H](Cc1c[nH]c2ccccc12)C(=O)NCCO)[C@H](C)O)C(C)C)C(C)C [B13] (For-VGA[dL]A[dV]V[dT]W[dL]W[dL]W[dL]W-NHCH2CH2OH) , report its Hemolytic activity HC10 (concentration causing 10% hemolysis).
> 3000 nM
